Biological target: Calcium/calmodulin-dependent protein kinase type IV (Homo sapiens, UniProt Q16566)
Sequence (Q16566 whole entry): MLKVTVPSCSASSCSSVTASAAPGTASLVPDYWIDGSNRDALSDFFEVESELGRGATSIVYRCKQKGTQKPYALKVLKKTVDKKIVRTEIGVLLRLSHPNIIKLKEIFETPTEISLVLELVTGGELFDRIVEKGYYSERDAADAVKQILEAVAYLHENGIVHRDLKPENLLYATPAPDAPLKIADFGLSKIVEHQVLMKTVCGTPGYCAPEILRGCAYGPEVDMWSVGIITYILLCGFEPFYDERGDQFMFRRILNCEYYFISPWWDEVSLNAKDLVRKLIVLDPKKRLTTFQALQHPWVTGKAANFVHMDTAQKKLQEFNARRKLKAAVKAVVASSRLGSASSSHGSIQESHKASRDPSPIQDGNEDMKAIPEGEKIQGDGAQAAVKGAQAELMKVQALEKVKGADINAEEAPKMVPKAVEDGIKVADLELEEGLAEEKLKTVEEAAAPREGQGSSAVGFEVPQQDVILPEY
Assay: Inhibition of human CAMK4
reportedEndpoint: IC50 (µM)
Write the number in µM without appending the unit.

Request: IC50, test system Calcium/calmodulin-dependent protein kinase type IV (Homo sapiens, UniProt Q16566), entry COc1ccc2c(c1)C(=O)N(c1nc(C(=O)Nc3cnccc3N3CCNCC3)cs1)C2
Result: 26

---

Molecular target: Cytochrome P450 2C9 (Homo sapiens, UniProt P11712)
Sequence (P11712 whole entry): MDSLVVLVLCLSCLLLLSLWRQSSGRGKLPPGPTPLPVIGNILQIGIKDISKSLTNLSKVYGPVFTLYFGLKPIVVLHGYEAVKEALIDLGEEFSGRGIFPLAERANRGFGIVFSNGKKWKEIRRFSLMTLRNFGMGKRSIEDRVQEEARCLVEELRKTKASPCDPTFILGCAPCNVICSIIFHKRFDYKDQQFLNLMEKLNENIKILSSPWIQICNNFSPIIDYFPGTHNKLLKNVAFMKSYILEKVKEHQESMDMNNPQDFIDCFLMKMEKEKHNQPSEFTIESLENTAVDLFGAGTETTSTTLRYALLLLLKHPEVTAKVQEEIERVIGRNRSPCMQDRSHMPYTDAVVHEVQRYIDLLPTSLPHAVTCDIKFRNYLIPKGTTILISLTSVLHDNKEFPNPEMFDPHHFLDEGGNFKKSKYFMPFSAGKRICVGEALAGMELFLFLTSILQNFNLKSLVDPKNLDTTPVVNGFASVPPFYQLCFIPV
Experiment: Inhibition of CYP2C9 in human liver microsomes using tolbutamide as substrate by LC-MS/MS analysis
Format: ADME, Microsome
reportedEndpoint: IC50

Request: If you can, please state the reported IC50 value of COc1ccc2c(c1)C(=O)N(c1nc(C(=O)Nc3cnccc3N3CCNCC3)cs1)C2 .
Result: > 30 µM

---

Target: Serine/threonine-protein kinase Chk1 (Homo sapiens)
Assay: Inhibition of CHK1 in human U2OS cells assessed as phosphorylation of H2AX after 2 hrs by FITC/propidium iodide staining-based immunofluorescence assay in presence of hydroxyurea
Hi there, I'd appreciate the recorded log10(EC50) for every entry that follows.
A value of 2 here means EC50 of 100 in nM, since values are log10.

Request: If you can, please state the reported log10(EC50) value of COc1ccc(-c2cc(Nc3nc(C(=O)Nc4ccccc4N4CCNCC4)cs3)[nH]n2)cc1 .
Result: 3.57

Request: What about COc1ccc2c(c1)C(=O)N(c1nc(C(=O)Nc3cc(F)ccc3N3CCNCC3)cs1)C2 ?
Result: 3.78

Request: What about O=C(Nc1cnccc1N1CCNCC1)c1csc(N2Cc3ccccc3C2)n1 ?
Result: 2.95

Request: What about O=C(Nc1cnccc1N1CCNCC1)c1csc(-n2ncc3ccccc32)n1 ?
Result: 1.88

Request: What about O=C(Nc1ccccc1N1CCNCC1)c1csc(-n2ncc3ccccc32)n1 ?
Result: 2.88

Request: What about O=C(Nc1cnccc1N1CCNCC1)c1csc(N2Cc3ccccc3C2=O)n1 ?
Result: 2.00

Request: What about O=C(Nc1cnccc1N1CCNCC1)c1csc(Nc2n[nH]c3ccccc23)n1 ?
Result: 1.60

Request: What about O=C(Nc1cnccc1N1CCNCC1)c1csc(-c2cc3ccccc3s2)n1 ?
Result: 3.00

Request: What about O=C(Nc1ccccc1N1CCNCC1)c1csc(N2Cc3ccccc3C2)n1 ?
Result: 3.15

Request: What about O=C(Nc1ccccc1N1CCNCC1)c1csc(Nc2cc(-c3ccccc3)n[nH]2)n1 ?
Result: 3.88

---

Experiment: Tmax in rat at 10 mg/kg, po
Assay type: ADME, organism-based
Parameters: dose 10 mg/kg, route oral
Details: in vivo
reportedEndpoint: Tmax (h)
Write the number in h without appending the unit.

Request: If you can, please state the reported Tmax value of COc1ccc2c(c1)C(=O)N(c1nc(C(=O)Nc3cnccc3N3CCNCC3)cs1)C2 .
Result: 6

---

Assay: Plasma concentration in rat at 10 mg/kg, po measured at 4 hrs
Format: ADME, organism-based
Design: dose 10 mg/kg, route oral
reportedEndpoint: concentration at 4 h (µg/mL)
Write the number in µg/mL without appending the unit.

Request: If you can, please state the reported concentration at 4 h value of COc1ccc2c(c1)C(=O)N(c1nc(C(=O)Nc3cnccc3N3CCNCC3)cs1)C2 .
Result: 0.183

---

Assay: Plasma concentration in rat at 10 mg/kg, po measured at 1 hr
Assay type: ADME, organism-based
Set-up: dose 10 mg/kg, route oral
reportedEndpoint: concentration at 1 h (ng/mL)
Write the number in ng/mL without appending the unit.

Request: If you can, please state the reported concentration at 1 h value of COc1ccc2c(c1)C(=O)N(c1nc(C(=O)Nc3cnccc3N3CCNCC3)cs1)C2 .
Result: 57

---

Test: Plasma concentration in rat at 10 mg/kg, po measured at 6 hrs
Assay type: ADME, organism-based
Parameters: dose 10 mg/kg, route oral
reportedEndpoint: concentration at 6 h (ng/mL)
Write the number in ng/mL without appending the unit.

Request: If you can, please state the reported concentration at 6 h value of COc1ccc2c(c1)C(=O)N(c1nc(C(=O)Nc3cnccc3N3CCNCC3)cs1)C2 .
Result: 252

---

Molecular target: Cytochrome P450 3A4 (Homo sapiens)
Sequence (P08684 whole entry): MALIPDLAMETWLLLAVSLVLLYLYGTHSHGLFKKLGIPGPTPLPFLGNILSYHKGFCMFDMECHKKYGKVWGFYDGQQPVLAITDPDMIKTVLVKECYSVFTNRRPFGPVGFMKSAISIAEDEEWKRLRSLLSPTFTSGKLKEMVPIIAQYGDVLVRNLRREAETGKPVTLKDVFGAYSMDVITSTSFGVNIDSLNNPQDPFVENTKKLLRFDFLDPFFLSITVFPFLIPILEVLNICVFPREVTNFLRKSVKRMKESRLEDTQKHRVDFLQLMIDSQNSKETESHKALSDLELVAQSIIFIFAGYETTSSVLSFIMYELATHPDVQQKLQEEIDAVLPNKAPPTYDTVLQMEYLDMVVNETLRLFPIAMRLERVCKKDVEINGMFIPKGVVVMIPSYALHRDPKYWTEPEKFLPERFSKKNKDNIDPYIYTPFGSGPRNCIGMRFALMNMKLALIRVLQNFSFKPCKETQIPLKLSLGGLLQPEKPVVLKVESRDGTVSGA
Assay: Time-dependent inhibition of CYP3A4 in human liver microsomes using 6beta-hydroxylase as substrate incubated for 30 mins prior to substrate addition measured after 30 mins by LC-MS/MS analysis
Type: ADME, Microsome
reportedEndpoint: IC50

Request: If you can, please state the reported IC50 value of COc1ccc2c(c1)C(=O)N(c1nc(C(=O)Nc3cnccc3N3CCNCC3)cs1)C2 .
Result: > 30 µM

---

Target: Cytochrome P450 2D6 (Homo sapiens, UniProt P10635)
Sequence (P10635 whole entry): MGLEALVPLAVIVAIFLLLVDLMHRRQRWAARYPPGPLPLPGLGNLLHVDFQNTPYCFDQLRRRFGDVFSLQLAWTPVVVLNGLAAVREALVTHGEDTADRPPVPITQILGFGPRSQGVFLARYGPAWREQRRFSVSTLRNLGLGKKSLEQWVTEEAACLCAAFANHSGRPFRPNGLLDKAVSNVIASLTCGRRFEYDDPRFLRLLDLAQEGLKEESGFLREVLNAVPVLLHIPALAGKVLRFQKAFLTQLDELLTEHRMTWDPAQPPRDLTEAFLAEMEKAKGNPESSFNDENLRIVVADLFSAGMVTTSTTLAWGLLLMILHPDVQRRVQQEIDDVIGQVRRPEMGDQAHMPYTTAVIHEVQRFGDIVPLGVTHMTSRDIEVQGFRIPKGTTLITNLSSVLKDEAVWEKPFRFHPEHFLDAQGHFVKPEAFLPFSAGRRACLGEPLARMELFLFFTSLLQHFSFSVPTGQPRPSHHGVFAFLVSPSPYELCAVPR
Assay: Time-dependent inhibition of CYP2D6 in human liver microsomes using dextromethorphan as substrate incubated for 30 mins prior to substrate addition measured after 30 mins by LC-MS/MS analysis
Format: ADME, Microsome
reportedEndpoint: IC50

Request: IC50, test system Cytochrome P450 2D6 (Homo sapiens, UniProt P10635), entry COc1ccc2c(c1)C(=O)N(c1nc(C(=O)Nc3cnccc3N3CCNCC3)cs1)C2
Result: > 30 µM

---

Molecular target: Hepatocyte growth factor receptor (Homo sapiens, UniProt P08581)
Sequence (P08581 whole entry): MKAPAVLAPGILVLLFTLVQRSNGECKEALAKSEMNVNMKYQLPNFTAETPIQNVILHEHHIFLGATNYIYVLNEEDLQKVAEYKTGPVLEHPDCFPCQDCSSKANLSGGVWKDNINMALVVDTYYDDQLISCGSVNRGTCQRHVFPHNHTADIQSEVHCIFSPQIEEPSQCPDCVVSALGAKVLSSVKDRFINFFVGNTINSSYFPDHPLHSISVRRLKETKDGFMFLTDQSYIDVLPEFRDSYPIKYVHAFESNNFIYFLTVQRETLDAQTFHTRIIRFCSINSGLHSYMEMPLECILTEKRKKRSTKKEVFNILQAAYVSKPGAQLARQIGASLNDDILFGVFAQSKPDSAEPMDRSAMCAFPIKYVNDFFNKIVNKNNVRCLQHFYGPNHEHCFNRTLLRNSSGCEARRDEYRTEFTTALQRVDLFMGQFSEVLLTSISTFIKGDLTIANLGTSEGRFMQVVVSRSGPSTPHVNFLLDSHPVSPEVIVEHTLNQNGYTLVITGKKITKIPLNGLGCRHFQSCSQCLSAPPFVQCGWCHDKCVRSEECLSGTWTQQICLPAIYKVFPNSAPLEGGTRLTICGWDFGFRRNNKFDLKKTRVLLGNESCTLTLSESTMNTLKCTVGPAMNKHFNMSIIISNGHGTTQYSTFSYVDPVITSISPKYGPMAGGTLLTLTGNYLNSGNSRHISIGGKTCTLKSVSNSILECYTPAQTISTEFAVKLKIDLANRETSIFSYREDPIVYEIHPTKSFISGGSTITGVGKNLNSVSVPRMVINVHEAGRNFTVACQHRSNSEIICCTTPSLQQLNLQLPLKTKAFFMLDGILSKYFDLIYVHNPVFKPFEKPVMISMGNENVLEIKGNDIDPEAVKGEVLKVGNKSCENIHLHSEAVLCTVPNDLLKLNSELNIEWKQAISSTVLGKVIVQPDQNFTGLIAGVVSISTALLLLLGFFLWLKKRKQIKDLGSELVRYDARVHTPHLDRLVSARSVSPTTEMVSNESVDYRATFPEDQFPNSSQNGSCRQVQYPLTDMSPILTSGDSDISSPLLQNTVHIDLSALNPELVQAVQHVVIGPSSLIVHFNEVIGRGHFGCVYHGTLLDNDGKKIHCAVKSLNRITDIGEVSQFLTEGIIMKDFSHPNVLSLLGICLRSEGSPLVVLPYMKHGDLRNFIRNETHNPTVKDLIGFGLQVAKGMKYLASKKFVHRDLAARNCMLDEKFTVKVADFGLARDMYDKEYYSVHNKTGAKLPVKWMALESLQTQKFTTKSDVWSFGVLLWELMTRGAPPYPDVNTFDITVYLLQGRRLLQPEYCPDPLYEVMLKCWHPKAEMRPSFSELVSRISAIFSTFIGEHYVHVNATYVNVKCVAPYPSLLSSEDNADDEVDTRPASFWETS
reportedEndpoint: IC50

Request: If you can, please state the reported IC50 value of COc1ccc2c(c1)C(=O)N(c1nc(C(=O)Nc3cnccc3N3CCNCC3)cs1)C2 .
Result: > 30 µM

---

Molecular target: UniProt:P10635
Experiment: Inhibition of CYP2D6 in human liver microsomes using dextromethorphan as substrate by LC-MS/MS analysis
Type: ADME, Microsome
pIC50: −log10 of the molar value.
reportedEndpoint: pIC50

Request: If you can, please state the reported pIC50 value of COc1ccc2c(c1)C(=O)N(c1nc(C(=O)Nc3cnccc3N3CCNCC3)cs1)C2 .
Result: < 4.52

---

Target: Serine/threonine-protein kinase Chk1 (Homo sapiens, UniProt O14757)
Sequence (O14757 whole entry): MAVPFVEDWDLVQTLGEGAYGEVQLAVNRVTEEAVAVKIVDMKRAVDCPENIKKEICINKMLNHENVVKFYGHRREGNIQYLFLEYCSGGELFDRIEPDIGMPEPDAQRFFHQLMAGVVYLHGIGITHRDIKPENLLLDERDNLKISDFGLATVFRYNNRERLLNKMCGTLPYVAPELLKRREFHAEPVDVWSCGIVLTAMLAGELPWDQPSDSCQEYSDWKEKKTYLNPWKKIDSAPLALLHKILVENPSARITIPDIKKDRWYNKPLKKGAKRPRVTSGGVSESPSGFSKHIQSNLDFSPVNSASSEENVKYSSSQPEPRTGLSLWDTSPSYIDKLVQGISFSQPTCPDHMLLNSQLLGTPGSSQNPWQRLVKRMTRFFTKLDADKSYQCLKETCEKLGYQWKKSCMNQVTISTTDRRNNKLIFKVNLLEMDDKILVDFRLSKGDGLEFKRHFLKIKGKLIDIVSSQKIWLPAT
Hi there, I'd appreciate the recorded IC50 for every entry that follows.
Write the number in nM without appending the unit.

Request: If you can, please state the reported IC50 value of O=C(Nc1ccccc1N1CCNCC1)c1csc(Nc2n[nH]c3ccccc23)n1 .
Result: 2

Request: What about O=C(Nc1ccccc1N1CCNCC1)c1csc(Nc2ccccc2)n1 ?
Result: 92

Request: What about O=C(Nc1ccccc1N1CCNCC1)c1csc(N2Cc3cn[nH]c3C2)n1 ?
Result: 62

Request: What about COc1ccc(-c2cc(N)n(-c3nc(C(=O)Nc4ccccc4N4CCNCC4)cs3)n2)cc1 ?
Result: 980

Request: What about O=C(Nc1cnccc1N1CCNCC1)c1csc(-c2ccc3sccc3c2)n1 ?
Result: 7

Request: What about O=C(Nc1cccnc1N1CCNCC1)c1csc(-c2ccc3c(c2)CCO3)n1 ?
Result: 870

Request: What about O=C(Nc1ccccc1N1CCNCC1)c1csc(N2CCc3sccc3C2)n1 ?
Result: 39

Request: What about Cc1ncc2c(n1)CN(c1nc(C(=O)Nc3ccccc3N3CCNCC3)cs1)C2 ?
Result: 5700

Request: What about CN(c1ccccc1)c1nc(C(=O)Nc2ccccc2N2CCNCC2)cs1 ?
Result: 240

Request: What about O=C(Nc1cnccc1N1CCNCC1)c1csc(-c2ccc3occc3c2)n1 ?
Result: 28

Request: What about O=C(Nc1ccccc1N1CCNCC1)c1csc(-n2ccnc2)n1 ?
Result: 10000

Request: What about O=C(Nc1ccccc1N1CCNCC1)c1csc(NCc2ccccc2)n1 ?
Result: 11000

Request: What about O=C(Nc1ccccc1N1CCNCC1)c1csc(-n2ncc3ccccc32)n1 ?
Result: 2

Request: What about O=C(Nc1ccccc1N1CCNCC1)c1csc(-n2cccn2)n1 ?
Result: 120

Request: What about Cn1nc(-c2ccccc2)cc1Nc1nc(C(=O)Nc2ccccc2N2CCNCC2)cs1 ?
Result: 4500

Request: What about O=C(Nc1ccccc1N1CCNCC1)c1csc(N2CCc3ccccc3C2)n1 ?
Result: 38

Request: What about O=C(Nc1cnccc1N1CCNCC1)c1csc(Nc2n[nH]c3ccccc23)n1 ?
Result: 3

Request: What about O=C(Nc1ccccc1N1CCNCC1)c1csc(N2CCc3[nH]cnc3C2)n1 ?
Result: 4000

Request: What about COc1ccc2c(c1)C(=O)N(c1nc(C(=O)Nc3cncnc3N3CCNCC3)cs1)C2 ?
Result: 46

Request: What about O=C(Nc1ccccc1N1CCNCC1)c1csc(-n2nnc3ccccc32)n1 ?
Result: 110

Request: What about O=C(Nc1cnccc1N1CCNCC1)c1csc(-c2ccc(Oc3ccccc3)cc2)n1 ?
Result: 430
